System: PPARg DBDmut:RXRa IVT, anti-PPARg (DBD mutation: PPARg1 K132A/R137A, NR concentration 270 nM, RXRa partner concentration 90 nM)
method-summary: PBM binding z-score (relative to random genomic background probes); higher = stronger binding; sequences stand for … in GC…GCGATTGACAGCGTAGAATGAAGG
Please use fulfilled whenever PBM binding z-score is not below 0.4, and not fulfilled whenever it is.

Please review the entries below; each comes with its answer.
{"monomer-sequence": "CGTCCAAGGTCATAGGCGGTCAGTGAAGACAGAT", "discrete-label": "not fulfilled"}
{"monomer-sequence": "CACACTAGGTCAAGGTCAAAGTCGGTTTGTGCCA", "discrete-label": "fulfilled"}
{"monomer-sequence": "AAGACAGGGTCATCGTAGGCCAGAGTACGCACAG", "discrete-label": "fulfilled"}
{"monomer-sequence": "ATCGCAAGGTCGAGGTGAGTATAGAGAAAGGGAA", "discrete-label": "fulfilled"}
{"monomer-sequence": "CCGACTGGGGCAAAGGTTACAATACTCAGTACGA", "discrete-label": "not fulfilled"}
{"monomer-sequence": "TCGAGTAGGTTACCAATGGGGCTTTCAGCTTTCT", "discrete-label": "not fulfilled"}
{"monomer-sequence": "ATCGATAGGTCGAGGTGAGTATAGAGAAAGGGAA", "discrete-label": "not fulfilled"}
{"monomer-sequence": "CCTACCGGGCCATTCAGAGGTCATTGATCATATG", "discrete-label": "not fulfilled"}
{"monomer-sequence": "GCTGCTCGGTCAGGTTGGTCAGCTAACGGGTACG", "discrete-label": "not fulfilled"}
{"monomer-sequence": "TCTCGGAGGACACGAAATGTCAGAGCTCGACATC", "discrete-label": "not fulfilled"}

Item AGTCAAAGTGCAGGACGAGGTAACGTAAAGCACG with PBM binding z-score of 0.4 or above? not fulfilled

Item TCTGCTAGGTCAGTTGGTCAGATAACGAGCTGCC with PBM binding z-score of 0.4 or above? fulfilled

Item CCTTACGGGTCACTCCAGGTTATACCATCGGAGT with PBM binding z-score of 0.4 or above? fulfilled
